Taken from the supplement of paper PMC10567573.

B1: ZNF649 (parent)
chain: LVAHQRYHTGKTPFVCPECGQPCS

Variants of: B1
assay.name: protein stability index of a GFP-peptide fusion (GPS, HEK-293T) (PSI 1-6); higher = more stable;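 note: lentivirally expressed fusions sorted by FACS into six bins by GFP to DsRed ratio, PSI derived from sequencing read proportions per bin multiplied by bin number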
test.settings: c terminus: a fixed tail appended
Category scheme (protein stability index): low range = under 3, mid range = from 3 up to 4, high range = 4 and over

- sequence.text: "LVNHQRYHTGKTPFVCPECGQPCS"
  discrete.label: "low range"
- sequence.text: "NVAHQRYHTGKTPFVCPECGQPCS"
  discrete.label: "high range"
- sequence.text: "LVAHQRYATGKTPFVCPECGQPCS"
  discrete.label: "mid range"
- sequence.text: "LVAHQRYHTGFTPFVCPECGQPCS"
  discrete.label: "low range"
- sequence.text: "LEAHQRYHTGKTPFVCPECGQPCS"
  discrete.label: "high range"
- sequence.text: "LVAHQRYHTGKTPFVNPECGQPCS"
  discrete.label: "low range"
- sequence.text: "LVAHQRVHTGKTPFVCPECGQPCS"
  discrete.label: "mid range"
- sequence.text: "LVAHQRYHTGKTPEVCPECGQPCS"
  discrete.label: "high range"
- sequence.text: "DVAHQRYHTGKTPFVCPECGQPCS"
  discrete.label: "mid range"
- sequence.text: "LVAHQRYHTGKTPFVCPWCGQPCS"
  discrete.label: "low range"
- sequence.text: "LVAHQRYHTGKTPFVCIECGQPCS"
  discrete.label: "low range"
